The reported numbers originate from paper PMC6026317.

# STUDY_SYSTEM: human FGFR1c/KLB (Homo sapiens, UniProt P11362+Q86Z14)
# Construct: while adding human soluble KLB generated a signal; purchased R&D Systems
# Sequence (Q86Z14 1-996 limits assumed): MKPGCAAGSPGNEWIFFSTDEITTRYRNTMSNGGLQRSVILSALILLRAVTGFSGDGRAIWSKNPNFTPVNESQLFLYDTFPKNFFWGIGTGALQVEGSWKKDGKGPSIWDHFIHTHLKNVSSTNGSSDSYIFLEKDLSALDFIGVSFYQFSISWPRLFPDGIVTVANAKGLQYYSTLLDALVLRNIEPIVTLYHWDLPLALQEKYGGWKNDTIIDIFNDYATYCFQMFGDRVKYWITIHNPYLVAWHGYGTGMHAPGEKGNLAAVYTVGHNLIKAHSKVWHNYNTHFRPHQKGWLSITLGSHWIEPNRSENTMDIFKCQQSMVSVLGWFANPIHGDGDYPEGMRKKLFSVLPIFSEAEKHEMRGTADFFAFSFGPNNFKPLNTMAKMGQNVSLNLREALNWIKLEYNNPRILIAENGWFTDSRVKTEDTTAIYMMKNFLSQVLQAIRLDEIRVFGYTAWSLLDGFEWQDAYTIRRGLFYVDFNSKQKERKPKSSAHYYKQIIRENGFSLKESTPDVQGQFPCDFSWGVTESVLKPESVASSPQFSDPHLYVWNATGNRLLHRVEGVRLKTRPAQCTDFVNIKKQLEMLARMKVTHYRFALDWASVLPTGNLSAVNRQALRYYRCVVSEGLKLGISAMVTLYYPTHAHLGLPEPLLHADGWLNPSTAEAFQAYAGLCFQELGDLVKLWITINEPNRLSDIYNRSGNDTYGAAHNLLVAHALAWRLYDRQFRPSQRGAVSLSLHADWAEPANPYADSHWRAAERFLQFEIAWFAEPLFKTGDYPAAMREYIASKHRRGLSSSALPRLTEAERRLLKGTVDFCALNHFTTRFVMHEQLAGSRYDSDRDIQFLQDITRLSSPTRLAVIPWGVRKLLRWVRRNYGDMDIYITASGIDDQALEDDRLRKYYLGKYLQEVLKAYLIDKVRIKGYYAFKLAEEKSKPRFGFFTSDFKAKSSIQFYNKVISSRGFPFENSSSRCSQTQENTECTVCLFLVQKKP
# Sequence (P11362 22-376 partner limits assumed): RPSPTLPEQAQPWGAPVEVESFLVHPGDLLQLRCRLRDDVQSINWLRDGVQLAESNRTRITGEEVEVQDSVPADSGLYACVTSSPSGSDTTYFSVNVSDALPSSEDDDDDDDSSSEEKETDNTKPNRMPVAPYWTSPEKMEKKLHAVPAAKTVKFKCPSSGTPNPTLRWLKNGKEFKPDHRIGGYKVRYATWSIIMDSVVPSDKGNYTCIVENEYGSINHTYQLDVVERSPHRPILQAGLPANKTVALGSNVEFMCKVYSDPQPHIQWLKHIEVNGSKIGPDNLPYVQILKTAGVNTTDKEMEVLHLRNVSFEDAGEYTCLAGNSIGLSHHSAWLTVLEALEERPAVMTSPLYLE
# TEST_DETAILS: AlphaScreen cell-free binding assay, displacement of biotinylated FGF21
# CONDITION_SET: peptides compete with FGF21 for human FGFR1/KLB complex, mean, n = 2, NC = Not Calculated due to negligible activity at the tested concentrations
pIC50: −log10 of the molar value. Ends that are not written are not given here.
QUANTITY_NAME: pIC50

• PPDVGSSDPLSMVGPSQGRSPSYAS-NH2 [21C25] = 6.82
• PPDVGSSDPLSMVGPSQGASPSYAS-NH2 [175 R] = 7.30
• PPDVGSSDPLSMVGPSQARSPSYAS-NH2 [174 G] = 6.82
• PPDVGSSDPLSMVGPSQGRSPSYAA-NH2 [181 S] = 7.30
